Tested on: P. aeruginosa ATCC27853
Assay: MIC susceptibility testing, broth microdilution in CaMHB
Format: cell-based, Pseudomonas aeruginosa
Conditions: Table 4A, different batches of cation-adjusted Muller-Hinton broth
Where a SMILES comes first, the peptide text is derived from it. Bridges are numbered along the chain shown (N, C = ends). [ ]: non-standard residue; d: D form. The star is where a group is joined. ξ: configuration not given here. ξHexahydromandeloyl = O=C(C(O)C1CCCCC1)*; Thr(3ξ) = CC(O)[C@H](N)C(=O)O; Dab = NCC[C@H](N)C(=O)O; X9 = O=C(CCCCCO)*
# MIC annotations
Field: numeric (micrograms/mL). Do not append units.

{"compound": "CC(C)C[C@@H]1NC(=O)[C@@H](Cc2ccccc2)NC(=O)[C@H](CCN)NC(=O)[C@@H](NC(=O)[C@H](CCN)NC(=O)[C@@H](NC(=O)CCCCCO)C(C)O)CCNC(=O)[C@H](C(C)O)NC(=O)[C@H](CCN)NC(=O)[C@H](CCN)NC1=O (stereo partly drawn) [Example 21] (X9-[Thr(3ξ)][Dab][Dab][Dab][dF]L[Dab][Dab][Thr(3ξ)]; lactam 3-C)", "value_type": "MIC", "readout_value": 1}

As a next step, examine the compound that follows.
Problem: Give a short answer stating reported MIC for CC(C)C[C@@H]1NC(=O)[C@@H](Cc2ccccc2)NC(=O)[C@H](CCN)NC(=O)[C@@H](NC(=O)[C@H](CCN)NC(=O)[C@@H](NC(=O)C(O)C2CCCCC2)C(C)O)CCNC(=O)[C@H](C(C)O)NC(=O)[C@H](CCN)NC(=O)[C@H](CCN)NC1=O (stereo partly drawn) [Example 34] (ξHexahydromandeloyl-[Thr(3ξ)][Dab][Dab][Dab][dF]L[Dab][Dab][Thr(3ξ)]; lactam 3-C) .
Solution: 0.125

---

# MIC annotations
System: A. baumannii ATCC19606
Assay: MIC susceptibility testing, broth microdilution in CaMHB
Assay type: cell-based, Acinetobacter baumannii
Conditions: Table 4
Counter-ions that a name gives are not always drawn. Where a SMILES comes first, the peptide text is derived from it. Bridges are numbered along the chain shown (N, C = ends). [ ]: non-standard residue; d: D form. The star is where a group is joined. ξ: configuration not given here. ξβ3hGly(cHex) = NC(CC(=O)*)C1CCCCC1; Thr(3ξ) = CC(O)[C@H](N)C(=O)O; Dab = NCC[C@H](N)C(=O)O; X3 = O=C(C1CCNC1)*
Field: numeric (micrograms/mL). Do not append units.

{"compound": "CC(C)C[C@@H]1NC(=O)[C@@H](Cc2ccccc2)NC(=O)[C@H](CCN)NC(=O)[C@@H](NC(=O)[C@H](CCN)NC(=O)[C@@H](NC(=O)CC(N)C2CCCCC2)C(C)O)CCNC(=O)[C@H](C(C)O)NC(=O)[C@H](CCN)NC(=O)[C@H](CCN)NC1=O (stereo partly drawn) [Example 14, Sulphate Salt] ({ξβ3hGly(cHex)}-[Thr(3ξ)][Dab][Dab][Dab][dF]L[Dab][Dab][Thr(3ξ)]; lactam 3-C)", "MIC [micrograms/mL]": 0.5}

Problem: Give a short answer stating reported MIC for CC(C)C[C@@H]1NC(=O)[C@@H](Cc2ccccc2)NC(=O)[C@H](CCN)NC(=O)[C@@H](NC(=O)[C@H](CCN)NC(=O)[C@@H](NC(=O)CN)C(C)O)CCNC(=O)[C@H](C(C)O)NC(=O)[C@H](CCN)NC(=O)[C@H](CCN)NC1=O (stereo partly drawn) [Example 3, Sulphate Salt] (H-G[Thr(3ξ)][Dab][Dab][Dab][dF]L[Dab][Dab][Thr(3ξ)]; lactam 4-C) .
Solution: 2

Problem: Give a short answer stating reported MIC for CC(C)C[C@@H]1NC(=O)[C@@H](Cc2ccccc2)NC(=O)[C@H](CCN)NC(=O)[C@@H](NC(=O)[C@H](CCN)NC(=O)[C@@H](NC(=O)C2CCNC2)C(C)O)CCNC(=O)[C@H](C(C)O)NC(=O)[C@H](CCN)NC(=O)[C@H](CCN)NC1=O (stereo partly drawn) [Example 13, Sulphate Salt] (X3-[Thr(3ξ)][Dab][Dab][Dab][dF]L[Dab][Dab][Thr(3ξ)]; lactam 3-C) .
Solution: 0.5
